# Tested on: Saccharomyces cerevisiae BY4741 SeMeCo community
# protocol.notes: z-score of subpopulation abundance vs DMSO median, subpopulation auxotrophic for H; higher = larger share of this subpopulation than in DMSO controls
# study.conditions: 10 µM; 24 h; SM minimal medium; subpopulation (auxotrophy): H
Structures can show the parent of a compound that is named as a salt.
The following compounds are listed with their measured z-score of subpopulation abundance values.
Field format: numeric only.

Worked set:
| compound | reported.value |
| --- | --- |
| NC[C@H]1O[C@H](O[C@H]2[C@H](O)[C@@H](O[C@H]3O[C@H](CO)[C@@H](O)[C@H](N)[C@H]3O)[C@H](N)C[C@@H]2N)[C@H](N)C[C@@H]1O | -1.81 |
| O=C(O)c1cc(O)c2c(c1)[C@H]([C@H]1c3cc(C(=O)O)cc(O)c3C(=O)c3c(O[C@@H]4O[C@H](CO)[C@@H](O)[C@H](O)[C@H]4O)cccc31)c1cccc(O[C@@H]3O[C@H](CO)[C@@H](O)[C@H](O)[C@H]3O)c1C2=O [Sennoside A] | 0 |
| Nc1c(CC(=O)O)cccc1C(=O)c1ccccc1 [Amfenac Sodium Monohydrate] | -0.38 |
| Cc1ccc(C(=O)C(C)CN2CCCCC2)cc1 (configuration not stated) [Tolperisone HCl] | -0.79 |
| Nc1nc2c(ncn2COCCO)c(=O)[nH]1 | -0.28 |
| C[C@]12CC[C@@H]3c4ccc(O)cc4CC[C@H]3[C@@H]1CC[C@@H]2O | 0.3 |

Item under review: CC[N+](CC)(CC)CC [Tetraethylammonium bromide] . Reported z-score of subpopulation abundance?
-0.73

----------
The following compounds are listed with their measured z-score of subpopulation abundance values.
# Test system: Saccharomyces cerevisiae BY4741 SeMeCo community
# protocol.notes: z-score of subpopulation abundance vs DMSO median, subpopulation auxotrophic for H; higher = larger share of this subpopulation than in DMSO controls
# study.conditions: 10 µM; 24 h; SM minimal medium; subpopulation (auxotrophy): H
Structures can show the parent of a compound that is named as a salt.
Field format: numeric only.

Worked set:
| compound | reported.value |
| --- | --- |
| CC[C@H](c1ccc(O)cc1)[C@@H](CC)c1ccc(O)cc1 [Hexestrol] | -0.31 |
| CC(NCCC(c1ccccc1)c1ccccc1)c1ccccc1 (stereo not drawn) [Fendiline hydrochloride] | -1.47 |
| Nc1nc2[nH]cc(CCc3ccc(C(=O)N[C@@H](CCC(=O)O)C(=O)O)cc3)c2c(=O)[nH]1 [Pemetrexed Disodium Hydrate] | 3.82 |
| CO/N=C(\C(=O)N[C@@H]1C(=O)N2C(C(=O)O)=CCS[C@H]12)c1csc(N)n1 [Ceftizoxime] | -0.86 |

Item under review: C(=C\c1ccccc1)/CN1CCN(C(c2ccccc2)c2ccccc2)CC1 [Cinnarizine] . Reported z-score of subpopulation abundance?
-0.62

Item under review: COc1ccc2[nH]c([S+]([O-])Cc3ncc(C)c(OC)c3C)nc2c1 (stereo not drawn) [Omeprazole Sodium] . Reported z-score of subpopulation abundance?
1.92

Item under review: C[C@]12CCC3=C4CCC(=O)C=C4CC[C@H]3[C@@H]1CC[C@@]2(O)CC#N [Dienogest] . Reported z-score of subpopulation abundance?
0.11

Item under review: Clc1ccc2c(N3CCN(CCCN4CCN(c5ccnc6cc(Cl)ccc56)CC4)CC3)ccnc2c1 [Piperaquine phosphate] . Reported z-score of subpopulation abundance?
0.23
